Tested on: UACC-62
Test: NCI tumour cell line growth inhibition, 48 h
Activity calls are given as the source filed them. No stated cut-off is given here; in the data, active = GI50 up to about 1.1 µM and inactive = higher.
assay endpoint: GI50

[[record]]
molecule = "COc1cc(NS(C)(=O)=O)ccc1Nc1ccnc2ccc3[nH]ccc3c12"
subject_of_test = "UACC-62"
assay_endpoint = "GI50"
result = "17.8 µM (inactive)"

[[record]]
molecule = "C=CCn1c(-c2ccc(Cl)cc2Cl)cs/c1=N\\c1c(C)n(C)n(-c2ccccc2)c1=O"
subject_of_test = "UACC-62"
assay_endpoint = "GI50"
result = "10.4 µM (inactive)"

[[record]]
molecule = "O=C1c2c(ccc3c2CCC3)CC1Cc1ccc2c(c1)CCC2 (centres undefined)"
subject_of_test = "UACC-62"
assay_endpoint = "GI50"
result = "8.24 µM (inactive)"


Provide reported GI50 for each item, in the same order as listed.
1. CC(=O)OCC(=O)O[C@@H]1[C@H]2[C@@H](OC(=O)c3ccccc3)[C@@H](C)C[C@]2(O)[C@H](OC(C)=O)[C@@]2(C)C[C@]1(OC(C)=O)C[C@H]1C(=O)C(C)(C)[C@@H](OC(C)=O)[C@@H]12
2. O=C1c2ccccc2-c2ccc(/N=N/c3c(O)ccc4ccccc34)cc21
3. Cc1ccnc2nc3[nH]c4ccccc4c3cc12
4. CC=C/C=C/[C@@H]1O[C@](O)([C@H](CC)C(=O)NC/C=C/C=C(\C)[C@@H](OC)[C@@H](C)[C@@H]2O[C@H](/C=C/C=C/C=C(\C)C(=O)c3c(O)cc[nH]c3=O)[C@H](O)[C@@H]2O)[C@H](O)[C@H](O)C1(C)C
5. CC(NNC(=O)c1ccncc1)c1ccc(Cl)cc1Cl (centres undefined)
6. Cc1ccc(S(=O)(=O)N(CCN2C(=O)c3ccccc3C2=O)c2cc3c4c(c2)Oc2cc(N(CCN5C(=O)c6ccccc6C5=O)S(=O)(=O)c5ccc(C)cc5)cc5c2C4(C)c2c(cc(N(CCN4C(=O)c6ccccc6C4=O)S(=O)(=O)c4ccc(C)cc4)cc2O5)O3)cc1

Response:
["> 25 µM (inactive)", "> 100 µM (inactive)", "> 100 µM (inactive)", "> 100 µM (inactive)", "> 100 µM (inactive)", "> 100 µM (inactive)"]

----------
System: ACHN
Assay: NCI tumour cell line growth inhibition, 48 h
The source made the active and inactive calls. No stated cut-off is given here; in the data, active = GI50 up to about 1.1 µM and inactive = higher.
Valid outcomes are listed here; reply with one: T = active, F = inactive

For orientation, consider the following solved cases.
[[record]]
compound = "N=C(N)NS(=O)(=O)c1ccc(Nc2c3ccccc3nc3ccc(C(=O)Nc4ccc(S(N)(=O)=O)cc4)cc23)cc1"
label = "F"

[[record]]
compound = "O=C(Cc1nc2sc3c(c2c(=O)[nH]1)CCCC3)Nc1ccccc1"
label = "F"

[[record]]
compound = "O=C(O)c1cc(O)c2c(c1)C([C@@H]1c3cccc(O)c3C(=O)c3c(O)cc(C(=O)O)cc31)c1cccc(O)c1C2=O (some centres undefined)"
label = "F"


Request: Would you mind telling me which call this test gave O=C(OCC1OC(n2nc(Cn3nnc(-c4cccnc4)n3)n(-c3cccc4ccccc34)c2=S)C(OC(=O)c2ccccc2)C1OC(=O)c1ccccc1)c1ccccc1 (centres undefined) ?
Response: F

Request: What outcome does the record of this test show for Cc1ccc2c(O)cc(-c3cccc4ccccc34)nc2n1 ?
Response: T

Request: What did this assay record as the result for CC1=C2C(=O)c3ccccc3C(=O)[C@H]2C[C@@H](N2CCCC2=O)O1 ?
Response: F

Request: Field: outcome | Entry: Cn1c(=O)n2n(c1=O)C1C(=CC2)C2C=CC1n1c(=O)n(C)c(=O)n12 (centres undefined)
Response: F

----------
Tested on: EKVX
Test: NCI tumour cell line growth inhibition, 48 h
The source made the active and inactive calls. Rule as the data show it: active = GI50 up to about 1.1 µM and inactive = higher.
assay endpoint: GI50

Please review the following examples before continuing.
[[record]]
molecule = "CC(=O)NNc1nc(C)c(C(=O)NNC(=O)C(=O)Nc2c([N+](=O)[O-])ccc(C)c2C)s1"
subject_of_test = "EKVX"
result = "> 100 µM (inactive)"

[[record]]
molecule = "CCN(c1cccc(NC(=S)Nc2ccccc2N(CC)c2cc(-c3ccccc3)no2)c1)c1cc(-c2ccccc2)no1"
subject_of_test = "EKVX"
result = "> 100 µM (inactive)"

[[record]]
molecule = "CC(C)(C)OC(=O)N1N=CCC1c1ccccc1 (centres undefined)"
subject_of_test = "EKVX"
result = "> 100 µM (inactive)"


Request: # lookup: GI50 of CN(C)c1nc2n(CCO)c(-c3ccccc3)c(-c3ccccc3)nc-2c(=O)n1
Response: > 100 µM (inactive)

----------
System: UACC-62
Assay: NCI tumour cell line growth inhibition, 48 h
The source made the active and inactive calls. Cut-off read from the data, not from the text of the source: active = GI50 up to about 1.1 µM and inactive = higher.
For each of the compounds below, state its GI50.

Below, 4 compounds whose answers are already recorded.
[[record]]
compound = "CCC1(CC)C(=O)CC[C@@]2(C)C1=CC[C@H]1[C@@H]3CC[C@H](O)[C@@]3(C)CC[C@@H]12"
subject_of_test = "UACC-62"
assay_endpoint = "GI50"
result = "54.7 µM (inactive)"

[[record]]
compound = "C[S+](C)CC1OC(n2cnc3c(N)ncnc32)C(O)C1O (stereo unspecified)"
subject_of_test = "UACC-62"
assay_endpoint = "GI50"
result = "> 96.2 µM (inactive)"

[[record]]
compound = "CCN(CC)CCC1(C(=O)OC)SCCc2ccc(C)cc21 (stereo unspecified)"
subject_of_test = "UACC-62"
assay_endpoint = "GI50"
result = "> 100 µM (inactive)"

[[record]]
compound = "Cc1ccc(C(=O)/C=C2\\Nc3ccccc3NC2=O)cc1"
subject_of_test = "UACC-62"
assay_endpoint = "GI50"
result = "2.26 µM (inactive)"


Provide reported GI50 for each item, in the same order as listed.
1. CC(=O)OCC1OC(Oc2cc(C)c(O)cc2C/C=C(\C)CC/C=C(\C)CC(=O)CC(C)C)C(O)C(OC(C)=O)C1OC(C)=O (stereo unspecified)
2. Oc1cccc(-c2cccc(O)n2)n1

Response:
1: 13 µM (inactive); 2: > 100 µM (inactive)

----------
Tested on: NCI-H23
Experiment: NCI tumour cell line growth inhibition, 48 h
Active and inactive are the calls of the source. Cut-off read from the data, not from the text of the source: active = GI50 up to about 1.1 µM and inactive = higher.
Record form. Attribute: GI50. Fill in for each entry.

Example cases with answers are listed next.
[[record]]
compound = "O=C(CNc1ccc2c(=S)c3ccccc3[nH]c2c1)Nc1ccccc1-c1ccccc1NC(=O)CNc1ccc2c(=S)c3ccccc3[nH]c2c1"
subject_of_test = "NCI-H23"
assay_endpoint = "GI50"
result = "13.8 µM (inactive)"

[[record]]
compound = "CCC(C)C1=C(OC(C)=O)[N+]2([O-])Oc3ccc(-c4c(OC(C)=O)c(OC(C)=O)c(-c5ccc(OC(C)=O)cc5)c(OC(C)=O)c4OC(C)=O)cc3OC2(C(C)CC)C(=O)N1OC(C)=O (configuration not stated)"
subject_of_test = "NCI-H23"
assay_endpoint = "GI50"
result = "20.6 µM (inactive)"

[[record]]
compound = "CCOC(=O)C(=O)NC12CC3CC(CC(C3)C1)C2"
subject_of_test = "NCI-H23"
assay_endpoint = "GI50"
result = "> 100 µM (inactive)"

[[record]]
compound = "C=CC[C@H]1[C@@H](O[Si](C)(C)C(C)(C)C)[C@H](n2ccc(=O)[nH]c2=O)O[C@@H]1CO[Si](C)(C)C(C)(C)C"
subject_of_test = "NCI-H23"
assay_endpoint = "GI50"
result = "2.14 µM (inactive)"

[[record]]
compound = "CC(=O)O.CN1CCN(CN2C(=O)C3C4C=CC(C3C2=O)C2C3C(=O)N(CN5CCN(C)CC5)C(=O)C3C42)CC1 (configuration not stated)"
subject_of_test = "NCI-H23"
assay_endpoint = "GI50"
result = "20.7 µM (inactive)"

[[record]]
compound = "O=C1C(Cl)C(c2cc3cc(Br)ccc3nc2Cl)N1c1ccc(F)c(Cl)c1 (configuration not stated)"
subject_of_test = "NCI-H23"
assay_endpoint = "GI50"
result = "3.83 µM (inactive)"


// next entry
Request: What GI50 value was documented for this compound, NCCCC(N)(C(=O)O)C(F)F (configuration not stated) ?
Response: > 5000 µM (inactive)

----------
Record form. Attribute: GI50. Fill in for each entry.
System: CAKI-1
Test: NCI tumour cell line growth inhibition, 48 h
Calls of active or inactive are those of the source. No stated cut-off is given here; in the data, active = GI50 up to about 1.1 µM and inactive = higher.

// solved cases for GI50 follow
[[record]]
compound = "O=c1c(Cl)c(Cl)cnn1CCc1ccncc1"
result = "1.98 µM (inactive)"

[[record]]
compound = "O=C(OCc1ccccc1)OOC(=O)OCc1ccccc1"
result = "> 100 µM (inactive)"

[[record]]
compound = "O=C(/C=C/c1ccc(O)cc1)NCCc1ccc(O)cc1"
result = "10.2 µM (inactive)"

[[record]]
compound = "CN(C)c1ccc(C=c2c3ccccc3n3c2cc(-c2ccc(Cl)cc2)[n+]3C)cc1"
result = "0.259 µM (active)"


Below are 8 compounds. Give each one its GI50.
1. CC(C)(C)OC(=O)N1N=CCC1c1ccccc1 (configuration not stated)
2. N#Cc1ccc(Oc2ccccc2)cc1C#N
3. C=CCCC(=O)N1CCC(C(=O)OCC)C1=O (configuration not stated)
4. Cc1cc(=O)n2nc(CCl)sc2n1
5. COc1ccc(/N=N/c2c(-c3ccccc3)nn(C(=O)CC(=O)Nc3ccccc3Cl)c2-c2ccccc2)cc1
6. O=C(Nc1ccccc1C(=O)NCc1ccccc1)/C(=C/c1ccccc1O)NC(=O)c1ccccc1
7. C=C[C@@]1(C)CC(=O)[C@]2(O)[C@@]3(C)[C@@H](OC(C)=O)CCC(C)(C)[C@@H]3[C@H](O)[C@H](OC(C)=O)[C@@]2(C)O1
8. COC1(CC[C@H](C)COC2OC(CO)C(O)C(O)C2O)O[C@H]2C[C@H]3[C@@H]4CC=C5C[C@@H](OC6OC(CO)C(O)C(OC7OC(CO)C(O)C(O)C7O)C6OC6OC(C)C(O)C(O)C6O)CC[C@]5(C)[C@H]4CC[C@]3(C)[C@H]2[C@@H]1C (some centres not stated)

Response:
1. > 100 µM (inactive)
2. 63.4 µM (inactive)
3. > 100 µM (inactive)
4. 10.3 µM (inactive)
5. > 100 µM (inactive)
6. > 100 µM (inactive)
7. > 100 µM (inactive)
8. 5.45 µM (inactive)
